# protocol summary: Clearance in rat
# Assay type: ADME
# measurement conditions: in vivo
measured property: clearance (mL/min/kg)
Give the quantity in mL/min/kg, number only.

Previously resolved entries follow.
# compound, clearance, mL/min/kg
rows = [
    ("N#Cc1ccc(CN2CC[C@H](NC(=O)c3ccc(C(=O)N4CCC(C(=O)c5ccc(-n6cccn6)cc5)CC4)nc3)[C@@H](F)C2)cc1", 19),
    ("COc1ccc(C(=O)C2CCN(C(=O)c3ccc(C(=O)NC4CCN(Cc5ccc(C#N)cc5)CC4(C)C)cn3)CC2)cc1 (stereo not drawn)", 40),
    ("COc1ccc(C(=O)C2CCN(C(=O)c3cc(C)c(C(=O)NC4CCN(Cc5ccc(OC)c(F)c5)CC4)cn3)CC2)cc1", 33),
    ("COc1ccc(C(=O)C2CCN(C(=O)c3ccc(C(=O)N(C)C4CCN(Cc5ccc(C#N)cc5)CC4)cn3)CC2)cc1", 74),
    ("COc1ccc(C(=O)C2CCN(C(=O)c3ccc(C(=O)N[C@H]4CCN(Cc5ccc(C#N)cc5)C[C@@H]4F)cn3)CC2)cc1 (relative stereo)", 17),
]

Query: Indicate its recorded clearance; the compound in question is `COc1ccc(C(=O)C2CCN(C(=O)c3ccc(C(=O)N[C@@H]4CCN(Cc5ccc(C#N)cc5)C[C@@H]4C(F)(F)F)cn3)CC2)cc1`
Response: 62

Query: Indicate its recorded clearance; the compound in question is `COc1ccc(C(=O)C2CCN(C(=O)c3cc(C(F)(F)F)c(C(=O)NC4CCN(Cc5ccc(C#N)cc5)CC4)cn3)CC2)cc1`
Response: 35

Query: Indicate its recorded clearance; the compound in question is `COc1ccc(C(=O)C2CCN(C(=O)c3ccc(C(=O)N[C@@H]4CCN(Cc5ccc(C#N)cc5)C[C@@H]4F)cn3)CC2)cc1`
Response: 33
